- Target under test: KPC-2 (Klebsiella pneumoniae KP1008 lysate) (Klebsiella pneumoniae)
- Construct: Lysates were prepared from bacteria expressing various β-lactamases as a source of enzymes; endogenous in cells
- Sequence (Q9F663 25-293 limits assumed): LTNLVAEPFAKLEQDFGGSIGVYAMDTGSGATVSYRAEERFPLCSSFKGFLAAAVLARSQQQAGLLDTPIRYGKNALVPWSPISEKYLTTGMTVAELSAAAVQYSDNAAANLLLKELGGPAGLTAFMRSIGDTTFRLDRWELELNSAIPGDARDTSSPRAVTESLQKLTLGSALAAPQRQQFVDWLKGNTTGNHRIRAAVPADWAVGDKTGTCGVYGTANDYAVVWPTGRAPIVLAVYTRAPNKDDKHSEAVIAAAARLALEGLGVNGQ
- Experiment summary: Inhibition of biapenem hydrolysis by bacterial lysate
Metric name: IC50

[[record]]
molecule = "O=C(O)C[C@@H]1CC[C@H](NC(=O)Cc2cccs2)B(O)O1"
target_under_test = "KPC-2 (Klebsiella pneumoniae KP1008 lysate) (Klebsiella pneumoniae)"
result_value = "0.337 to 3.37 µM"

[[record]]
molecule = "CC(=O)N[C@H]1CCC(CC(=O)O)OB1O (some centres unmarked)"
target_under_test = "KPC-2 (Klebsiella pneumoniae KP1008 lysate) (Klebsiella pneumoniae)"
result_value = "> 4.65 µM"

[[record]]
molecule = "O=C(O)CC1CC[C@H](NC(=O)C2CC2)B(O)O1 (some centres unmarked)"
target_under_test = "KPC-2 (Klebsiella pneumoniae KP1008 lysate) (Klebsiella pneumoniae)"
result_value = "> 4.15 µM"


For every item below, please supply its IC50.
1. C[C@]1(Cn2ccnn2)[C@H](C(=O)O)N2C(=O)C[C@H]2S1(=O)=O [Tazobactam, reference compound]
2. O=C(O)C[C@@H]1CC[C@H](NC(=O)Cc2ccccc2)B(O)O1

Reply:
["> 3.33 µM", "0.344 to 3.44 µM"]

---

- Target under test: KPC-3 (Escherichia coli EC1007 lysate) (Klebsiella pneumoniae, UniProt Q9F663, H272Y)
- Construct: Lysates were prepared from bacteria expressing various β-lactamases as a source of enzymes; endogenous in cells; host or cells: Escherichia coli strain EC1007 (freeze-thaw lysate supernatant)
- Sequence (Q9F663 25-293 H272Y): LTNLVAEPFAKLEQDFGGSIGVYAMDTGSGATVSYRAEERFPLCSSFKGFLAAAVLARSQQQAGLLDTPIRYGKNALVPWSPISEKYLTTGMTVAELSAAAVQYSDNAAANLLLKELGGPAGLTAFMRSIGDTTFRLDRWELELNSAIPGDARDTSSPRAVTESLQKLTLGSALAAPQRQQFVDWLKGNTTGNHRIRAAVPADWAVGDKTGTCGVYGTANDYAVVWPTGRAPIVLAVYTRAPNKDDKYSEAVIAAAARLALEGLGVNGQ
- Experiment summary: Inhibition of biapenem hydrolysis by bacterial lysate
- Type: biochemical
pIC50: −log10 of the molar value. Where a name gives a salt, the structure may show the parent alone.
Metric name: pIC50

[[record]]
compound = "N[C@H]1CCC(CC(=O)O)OB1O (some centres unmarked) [Compound 7, hydrochloride]"
target_under_test = "KPC-3 (Escherichia coli EC1007 lysate) (Klebsiella pneumoniae, UniProt Q9F663, H272Y)"
metric_name = "pIC50"
result_value = "< 5.24"


Okay, now this compound:
pIC50 in this record for C[C@]1(Cn2ccnn2)[C@H](C(=O)O)N2C(=O)C[C@H]2S1(=O)=O [Tazobactam, reference compound] : < 5.48

---

I'd appreciate it if you could supply pIC50 values for the items below.
- Target under test: KPC-3 (Escherichia coli EC1007 lysate) (Klebsiella pneumoniae, UniProt Q9F663, H272Y)
- Construct: Lysates were prepared from bacteria expressing various β-lactamases as a source of enzymes; endogenous in cells; host or cells: Escherichia coli strain EC1007 (freeze-thaw lysate supernatant)
- Experiment summary: Inhibition of biapenem hydrolysis by bacterial lysate
- Format: biochemical
- Conditions: EC1007 KPC-3 lysate; read-out: IC50 (μg/mL) of inhibition of biapenem hydrolysis
pIC50: −log10 of the molar value.

[[record]]
compound = "CC(=O)N[C@H]1CCC(CC(=O)O)OB1O (stereo partly shown)"
result_value = "5.33 to 6.33"

[[record]]
compound = "O=C(O)C[C@@H]1CC[C@H](NC(=O)Cc2ccccc2)B(O)O1"
result_value = "> 6.46"


For every item below, please supply its pIC50.
1. O=C(O)C[C@@H]1CC[C@H](NC(=O)Cc2cccs2)B(O)O1
2. O=C(O)CC1CC[C@H](NC(=O)C2CC2)B(O)O1 (stereo partly shown)

Reply:
["> 6.47", "5.38 to 6.38"]

---

- Target under test: SME-2 (Serratia marcescens SM1000 lysate) (Serratia marcescens, UniProt P52682)
- Construct: Lysates were prepared from bacteria expressing various β-lactamases as a source of enzymes
- Sequence (P52682 28-294 limits assumed): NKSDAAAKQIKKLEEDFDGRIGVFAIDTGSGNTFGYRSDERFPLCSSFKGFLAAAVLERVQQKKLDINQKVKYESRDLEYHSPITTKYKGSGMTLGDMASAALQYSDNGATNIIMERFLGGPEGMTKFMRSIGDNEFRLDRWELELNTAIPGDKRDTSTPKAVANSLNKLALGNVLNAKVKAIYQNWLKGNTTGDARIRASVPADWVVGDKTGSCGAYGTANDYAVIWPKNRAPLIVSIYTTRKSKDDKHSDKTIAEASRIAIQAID
- Experiment summary: Inhibition of biapenem hydrolysis by bacterial lysate
- Format: biochemical
- Conditions: SM1000 SME-2 lysate; read-out: IC50 (μg/mL) of inhibition of biapenem hydrolysis
Metric name: IC50

The following molecules have reported results that may help.
[[record]]
molecule = "O=C(O)C[C@@H]1CC[C@H](NC(=O)Cc2cccs2)B(O)O1"
result_value = "< 337 nM"

[[record]]
molecule = "O=C(O)C[C@@H]1CC[C@H](NC(=O)Cc2ccccc2)B(O)O1"
result_value = "344 to 3440 nM"

[[record]]
molecule = "O=C(O)CC1CC[C@H](NC(=O)C2CC2)B(O)O1 (stereo partly shown)"
result_value = "415 to 4150 nM"


IC50 in this record for CC(=O)N[C@H]1CCC(CC(=O)O)OB1O (stereo partly shown) : > 4650 nM

---

I'd appreciate it if you could supply pIC50 values for the items below.
- Target under test: KPC-2 (Klebsiella pneumoniae KP1004 lysate) (Klebsiella pneumoniae)
- Construct: Lysates were prepared from bacteria expressing various β-lactamases as a source of enzymes; endogenous in cells
- Sequence (Q9F663 25-293 limits assumed): as the sequence (Q9F663 25-293 limits assumed) above
- Experiment summary: Inhibition of biapenem hydrolysis by bacterial lysate
pIC50: −log10 of the molar value.

The following compounds have reported results that may help.
[[record]]
compound = "O=C(O)C[C@@H]1CC[C@H](NC(=O)Cc2cccs2)B(O)O1"
result_value = "> 6.47"

[[record]]
compound = "CC(=O)N[C@H]1CCC(CC(=O)O)OB1O (some centres unmarked)"
result_value = "< 5.33"

[[record]]
compound = "C[C@]1(Cn2ccnn2)[C@H](C(=O)O)N2C(=O)C[C@H]2S1(=O)=O [Tazobactam, reference compound]"
result_value = "< 5.48"

[[record]]
compound = "O=C(O)CC1CC[C@H](NC(=O)C2CC2)B(O)O1 (some centres unmarked)"
result_value = "5.38 to 6.38"


pIC50 in this record for O=C(O)C[C@@H]1CC[C@H](NC(=O)Cc2ccccc2)B(O)O1 : 5.46 to 6.46

---

- Target under test: SME-2 (Serratia marcescens SM1000 lysate) (Serratia marcescens, UniProt P52682)
- Construct: Lysates were prepared from bacteria expressing various β-lactamases as a source of enzymes
- Experiment summary: Inhibition of biapenem hydrolysis by bacterial lysate
- Type: biochemical
- Conditions: read-out: IC50 (μg/mL) of inhibition of biapenem hydrolysis; SM1000 SME-2 lysate
pIC50: −log10 of the molar value. Where a name gives a salt, the structure may show the parent alone.
Metric name: pIC50

[[record]]
compound = "C[C@]1(Cn2ccnn2)[C@H](C(=O)O)N2C(=O)C[C@H]2S1(=O)=O [Tazobactam, reference compound]"
target_under_test = "SME-2 (Serratia marcescens SM1000 lysate) (Serratia marcescens, UniProt P52682)"
metric_name = "pIC50"
result_value = "5.48 to 6.48"


Okay, now this compound:
pIC50 in this record for N[C@H]1CCC(CC(=O)O)OB1O (some centres unmarked) [Compound 7, hydrochloride] : < 5.24
